assay: Stability in rat liver microsomes assessed as half-life; format: ADME, Microsome
Measurement Label: log10 of half-life (log10 of the value in h)

Molecule	Measurement Label	Recorded Value
[O-][n+]1cc(-c2c(-n3cnnn3)ccc(Cl)c2F)ccc1C(CC1CC1)n1cc(-c2cncs2)cn1 (racemic)	log10 of half-life	-0.93
Cn1cncc1-c1cnn([C@H](CC2CC2)c2ccc(-c3c(-n4cnnn4)ccc(Cl)c3F)c[n+]2[O-])c1	log10 of half-life	0.03
COCC[C@H](c1ccc(-c2c(-n3cc(Cl)nn3)ccc(Cl)c2F)c[n+]1[O-])n1cc(-c2cnnn2C)cn1	log10 of half-life	-0.11
Cn1nncc1-c1cnn([C@H](Cc2ccc(F)cc2)c2ccc(-c3c(-n4cc(Cl)nn4)ccc(Cl)c3F)c[n+]2[O-])c1	log10 of half-life	0.11
Cn1nncc1-c1cnn([C@H](Cc2ccn(C(F)F)n2)c2ccc(-c3c(-n4cc(C(F)(F)F)nn4)ccc(Cl)c3F)c[n+]2[O-])c1	log10 of half-life	0.37
Cn1nccc1-c1cnn(C(CC2CC2)c2ccc(-c3c(-n4cnnn4)ccc(Cl)c3F)c[n+]2[O-])c1 (racemic)	log10 of half-life	-0.35
Cn1nncc1-c1cnn([C@H](Cn2cc(F)cn2)c2ccc(-c3c(-n4cc(Cl)nn4)ccc(Cl)c3F)c[n+]2[O-])c1	log10 of half-life	0.17
Cc1nc(N)ccc1-c1cnn(C(CC2CC2)c2ccc(-c3c(-n4cnnn4)ccc(Cl)c3F)c[n+]2[O-])c1 (racemic)	log10 of half-life	0.26

Value source: ChEMBL document CHEMBL5137069
